B1: TMEM106C (parent)
chain: TVPEILVHNIVIFMRTSVKISYIG

Variants of: B1
Experiment: protein stability index of a GFP-peptide fusion (GPS, HEK-293T) (PSI 1-6); higher = more stable;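 note: lentivirally expressed fusions sorted by FACS into six bins by GFP to DsRed ratio, PSI derived from sequencing read proportions per bin multiplied by bin number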
Conditions: c terminus: a fixed tail appended
Endpoint: protein stability index
The reply should be a number, written without any unit.

Consider the reported protein stability index for these variants:
I10A :: 3.07
I5A :: 2.92

Alright, here's another variant for you.
Return protein stability index (reported value) for this variant: V18M 3.05
